# tgt: Human plasma kallikrein (Homo sapiens (Human), UniProt P03952)
# Sequence (P03952 391-638): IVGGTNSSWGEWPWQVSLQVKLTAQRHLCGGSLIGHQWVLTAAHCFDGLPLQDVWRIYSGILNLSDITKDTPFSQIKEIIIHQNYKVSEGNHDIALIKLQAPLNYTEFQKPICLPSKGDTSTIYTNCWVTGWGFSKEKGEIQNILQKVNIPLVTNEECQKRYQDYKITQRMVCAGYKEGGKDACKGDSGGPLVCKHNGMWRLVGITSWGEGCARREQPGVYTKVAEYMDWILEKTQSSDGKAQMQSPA
# Sequence (P03952 20-390 partner): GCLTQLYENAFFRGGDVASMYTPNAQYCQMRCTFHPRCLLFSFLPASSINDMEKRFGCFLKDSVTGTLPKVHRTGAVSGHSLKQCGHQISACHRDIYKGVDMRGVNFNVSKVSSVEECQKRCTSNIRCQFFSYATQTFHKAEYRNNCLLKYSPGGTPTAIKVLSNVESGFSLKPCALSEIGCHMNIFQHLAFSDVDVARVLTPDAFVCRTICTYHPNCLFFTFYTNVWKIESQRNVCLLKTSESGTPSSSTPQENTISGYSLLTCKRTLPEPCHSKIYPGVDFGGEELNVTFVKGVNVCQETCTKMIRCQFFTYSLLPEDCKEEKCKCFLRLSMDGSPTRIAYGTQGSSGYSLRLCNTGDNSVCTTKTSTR
# run-description: Kallikrein Assay (fluorogenic substrate Acetyl-K-P-R-AFC)
# condition-info: Plasma Kallikrein (PKal)
pIC50: −log10 of the molar value.
observable: pIC50

| compound | pIC50 |
| --- | --- |
| Cc1ncc(-c2c(C(F)F)ccc(Cl)c2F)nc1C(=O)Nc1cnn(C(C)c2ccc(N3CC4CC4C3=O)nc2)c1 (single isomer, unassigned) [Example 74] | 7.84 |

1 = Cc1cc(N2C[C@H]3C[C@H]3C2=O)ncc1C(C)n1cc(NC(=O)c2nc(-c3c(C(F)F)ccc(Cl)c3F)cnc2CO)cn1 (single isomer, unassigned) [Example 204]
2 = Cc1ncc(-c2c(C(F)F)ccc(Cl)c2F)nc1C(=O)Nc1cnn([C@@H](C)c2cnc(N3C[C@H]4C[C@H]4C3=O)c(O)c2)c1 [Example 217]
Exercise: Between item 1 and item 2 , which reported pIC50 is smaller? I would appreciate it if you answered with the label of your choice.
Key: 2
